Origin of measurements: PubChem BioAssay AID1963450

system: 556581-035-R-J1-PDC complex spheroid growth; test: Anticancer human tumor 556581-035-R-J1-PDC patient-derived ovarian carcinoma cell line growth inhibition [Asc]; settings: curve of first compound; second compound 0.3 µM
experimental endpoint: IC50 (nM)

1: O=C(c1ccc(F)c(F)c1Nc1ccc(I)cc1F)N1CC(O)([C@@H]2CCCCN2)C1 + CCN1C(C(=O)NC23CCC(C(=O)O)(CC2)CC3)C(c2cccc(Cl)c2F)C2(C(=O)Nc3cc(Cl)ccc32)C12CCCCC2
2: C=C(F)C(=O)N1CCN(c2nc(OCC3CCCN3C)nc3c2CCN(c2cccc4cccc(Cl)c24)C3)CC1CC#N (stereo not given) + CCN1C(C(=O)NC23CCC(C(=O)O)(CC2)CC3)C(c2cccc(Cl)c2F)C2(C(=O)Nc3cc(Cl)ccc32)C12CCCCC2
// max by IC50 over [ 1 , 2 ] Respond using the label that marks the chosen record. 2
(2: 3880 nM, 1: 181 nM)

* * *

system: 556581-035-R-J1-PDC complex spheroid growth; experiment: Anticancer human tumor 556581-035-R-J1-PDC cell line growth inhibition [Asc]; conditions: second compound 0.3 µM; first compound 0.00316 µM; stronger effect = lower value;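 further: spheroids exposed to agents for 7 days before viability read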
experimental endpoint: viability, T/C (%)
Number in %, nothing else.

Determine its reported viability, T/C: CCN1CCN(Cc2ccc(Nc3ncc(F)c(-c4cc(F)c5nc(C)n(C(C)C)c5c4)n3)nc2)CC1 + CCN1C(C(=O)NC23CCC(C(=O)O)(CC2)CC3)C(c2cccc(Cl)c2F)C2(C(=O)Nc3cc(Cl)ccc32)C12CCCCC2 102

Determine its reported viability, T/C: CNC(C)C(=O)NC1CN(S(=O)(=O)c2cccc(S(=O)(=O)N3CCC4CCC(C(=O)NC(c5ccccc5)c5ccccc5)N4C(=O)C(NC(=O)C(C)NC)C3)c2)CCC2CCC(C(=O)NC(c3ccccc3)c3ccccc3)N2C1=O (stereo not drawn) + CCN1C(C(=O)NC23CCC(C(=O)O)(CC2)CC3)C(c2cccc(Cl)c2F)C2(C(=O)Nc3cc(Cl)ccc32)C12CCCCC2 108

Determine its reported viability, T/C: Cn1ncnc1[C@H]1c2n[nH]c(=O)c3cc(F)cc(c23)N[C@@H]1c1ccc(F)cc1 + CCN1C(C(=O)NC23CCC(C(=O)O)(CC2)CC3)C(c2cccc(Cl)c2F)C2(C(=O)Nc3cc(Cl)ccc32)C12CCCCC2 97.2

* * *

test system: 556581-035-R-J1-PDC complex spheroid growth; experiment: Anticancer human tumor 556581-035-R-J1-PDC cell line growth inhibition [Asc]; conditions: curve of first compound; second compound 0.1 µM;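 further: spheroids exposed to agents for 7 days before viability read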
pIC50: −log10 of the molar value.
experimental endpoint: pIC50

>  <compound>
C=C(F)C(=O)N1CCN(c2nc(OCC3CCCN3C)nc3c2CCN(c2cccc4cccc(Cl)c24)C3)CC1CC#N (stereo not drawn) + CNC(C)C(=O)NC1CN(S(=O)(=O)c2cccc(S(=O)(=O)N3CCC4CCC(C(=O)NC(c5ccccc5)c5ccccc5)N4C(=O)C(NC(=O)C(C)NC)C3)c2)CCC2CCC(C(=O)NC(c3ccccc3)c3ccccc3)N2C1=O

>  <reported measurement>
5.82

$$$$
>  <compound>
C#Cc1c(F)ccc2cc(O)cc(-c3ncc4c(N5CC6CCC(C5)N6)nc(OCC56CCCN5CC(F)C6)nc4c3F)c12 (stereo not drawn) + CNC(C)C(=O)NC1CN(S(=O)(=O)c2cccc(S(=O)(=O)N3CCC4CCC(C(=O)NC(c5ccccc5)c5ccccc5)N4C(=O)C(NC(=O)C(C)NC)C3)c2)CCC2CCC(C(=O)NC(c3ccccc3)c3ccccc3)N2C1=O

>  <reported measurement>
< 5.00

$$$$

Here's the next entry for you.
Determine its reported pIC50: C=CC(=O)N1CCN(c2nc(=O)n(-c3c(C)ccnc3C(C)C)c3nc(-c4c(O)cccc4F)c(F)cc23)C(C)C1 (stereo not drawn) + Cc1c(S(C)(=O)=O)c(-c2cc(F)cc(N3CCN(c4ccc(NS(=O)(=O)c5ccc(NC(CCN6CCC(C(=O)OCCCP(=O)(O)O)CC6)CSc6ccccc6)c(S(=O)(=O)C(F)(F)F)c5)cc4)CC3)c2)c(-c2ccc(Cl)cc2)n1C(C)C < 5.00

* * *

system: 556581-035-R-J1-PDC complex spheroid growth; experiment: Anticancer human tumor 556581-035-R-J1-PDC cell line growth inhibition [Asc]; settings: second compound 0.0316 µM; first compound 0.01 µM; stronger effect = lower value;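 further: spheroids exposed to agents for 7 days before viability read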
viability, T/C values by entry
Number in %, nothing else.

Examples with their reported viability, T/C follow.
>  <compound>
Cn1ncnc1[C@H]1c2n[nH]c(=O)c3cc(F)cc(c23)N[C@@H]1c1ccc(F)cc1 + CNC(C)C(=O)NC1CN(S(=O)(=O)c2cccc(S(=O)(=O)N3CCC4CCC(C(=O)NC(c5ccccc5)c5ccccc5)N4C(=O)C(NC(=O)C(C)NC)C3)c2)CCC2CCC(C(=O)NC(c3ccccc3)c3ccccc3)N2C1=O

>  <scale unit>
%

>  <viability, T/C>
77

$$$$
>  <compound>
NC1CCC(NC2CC2c2ccccc2)CC1 (stereo not given) + CNC(C)C(=O)NC1CN(S(=O)(=O)c2cccc(S(=O)(=O)N3CCC4CCC(C(=O)NC(c5ccccc5)c5ccccc5)N4C(=O)C(NC(=O)C(C)NC)C3)c2)CCC2CCC(C(=O)NC(c3ccccc3)c3ccccc3)N2C1=O

>  <scale unit>
%

>  <viability, T/C>
72

$$$$
>  <compound>
COc1c(OCCCN2CCOCC2)ccc2c3n(c(=NC(=O)c4cnc(N)nc4)nc12)CCN3 + CNC(C)C(=O)NC1CN(S(=O)(=O)c2cccc(S(=O)(=O)N3CCC4CCC(C(=O)NC(c5ccccc5)c5ccccc5)N4C(=O)C(NC(=O)C(C)NC)C3)c2)CCC2CCC(C(=O)NC(c3ccccc3)c3ccccc3)N2C1=O

>  <scale unit>
%

>  <viability, T/C>
58.2

$$$$

Name the recorded viability, T/C of O=C(c1ccc(F)c(F)c1Nc1ccc(I)cc1F)N1CC(O)([C@@H]2CCCCN2)C1 + CNC(C)C(=O)NC1CN(S(=O)(=O)c2cccc(S(=O)(=O)N3CCC4CCC(C(=O)NC(c5ccccc5)c5ccccc5)N4C(=O)C(NC(=O)C(C)NC)C3)c2)CCC2CCC(C(=O)NC(c3ccccc3)c3ccccc3)N2C1=O , assay system 556581-035-R-J1-PDC complex spheroid growth. 72.7

Name the recorded viability, T/C of CCN1CCN(Cc2ccc(Nc3ncc(F)c(-c4cc(F)c5nc(C)n(C(C)C)c5c4)n3)nc2)CC1 + CNC(C)C(=O)NC1CN(S(=O)(=O)c2cccc(S(=O)(=O)N3CCC4CCC(C(=O)NC(c5ccccc5)c5ccccc5)N4C(=O)C(NC(=O)C(C)NC)C3)c2)CCC2CCC(C(=O)NC(c3ccccc3)c3ccccc3)N2C1=O , assay system 556581-035-R-J1-PDC complex spheroid growth. 88.7

* * *

tested on: 556581-035-R-J1-PDC complex spheroid growth; assay: Anticancer human tumor 556581-035-R-J1-PDC cell line growth inhibition [Asc]; settings: second compound 0.949 µM; first compound 3.16 µM; stronger effect = lower value;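 further: spheroids exposed to agents for 7 days before viability read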
experimental endpoint: viability, T/C (%)
Number in %, nothing else.

Examples with their reported viability, T/C follow.
>  <compound>
C=CC(=O)N1CCN(c2nc(=O)n(-c3c(C)ccnc3C(C)C)c3nc(-c4c(O)cccc4F)c(F)cc23)C(C)C1 (centres undefined) + CCN1C(C(=O)NC23CCC(C(=O)O)(CC2)CC3)C(c2cccc(Cl)c2F)C2(C(=O)Nc3cc(Cl)ccc32)C12CCCCC2

>  <target under test>
556581-035-R-J1-PDC complex spheroid growth

>  <scale unit>
%

>  <viability, T/C>
109

$$$$
>  <compound>
C=C(F)C(=O)N1CCN(c2nc(OCC3CCCN3C)nc3c2CCN(c2cccc4cccc(Cl)c24)C3)CC1CC#N (centres undefined) + CCN1C(C(=O)NC23CCC(C(=O)O)(CC2)CC3)C(c2cccc(Cl)c2F)C2(C(=O)Nc3cc(Cl)ccc32)C12CCCCC2

>  <target under test>
556581-035-R-J1-PDC complex spheroid growth

>  <scale unit>
%

>  <viability, T/C>
65.6

$$$$
>  <compound>
C#Cc1c(F)ccc2cc(O)cc(-c3ncc4c(N5CC6CCC(C5)N6)nc(OCC56CCCN5CC(F)C6)nc4c3F)c12 (centres undefined) + CCN1C(C(=O)NC23CCC(C(=O)O)(CC2)CC3)C(c2cccc(Cl)c2F)C2(C(=O)Nc3cc(Cl)ccc32)C12CCCCC2

>  <target under test>
556581-035-R-J1-PDC complex spheroid growth

>  <scale unit>
%

>  <viability, T/C>
76.3

$$$$

Here's the next entry for you.
Determine its reported viability, T/C: O=C(c1cc(Cc2n[nH]c(=O)c3ccccc23)ccc1F)N1CCN(C(=O)C2CC2)CC1 + CCN1C(C(=O)NC23CCC(C(=O)O)(CC2)CC3)C(c2cccc(Cl)c2F)C2(C(=O)Nc3cc(Cl)ccc32)C12CCCCC2 79.3
